protocol.notes: recombinant UMI read abundance after kanamycin selection (control-corrected) (log10(CPM+1)); higher = more efficient recombination; extreme values may be limits of the assay; sequences stand for … in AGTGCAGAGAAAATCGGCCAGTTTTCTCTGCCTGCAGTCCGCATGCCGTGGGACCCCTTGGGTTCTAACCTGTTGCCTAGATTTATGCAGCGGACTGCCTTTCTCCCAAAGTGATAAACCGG…AGGTTGGTTTCACT; site = the 11-nt donor;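 note: IS621 bridge recombinase in Escherichia coli cells against a fixed T5 target plasmid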

- ordered.residues: "CGCCGTTCATGGACCGGTTTTCCCGGTAATCCGTATTTGCT (site CGCCGTTCTAG)"
  recombinant UMI read abundance (log10): 2.41
- ordered.residues: "AGTCGTACATGGACCGGTTTTCCCGGTAATCCGTATTTGGA (site AGTCGTACTTC)"
  recombinant UMI read abundance (log10): 0.529
- ordered.residues: "CGGAATCCATGGACCGGTTTTCCCGGTAATCCGTATTTGTT (site CGGAGTCCTAA)"
  recombinant UMI read abundance (log10): 0.00217
- ordered.residues: "TATTTGACATGGACCGGTTTTCCCGGTAATCCGTATTTGCT (site TATTTGACTAG)"
  recombinant UMI read abundance (log10): 2.54
- ordered.residues: "AAGCCTTCATGGACCGGTTTTCCCGGTAATCCGTATTTGGT (site AAGCCTTCTAC)"
  recombinant UMI read abundance (log10): 0.585
